All values here come from the supplement of paper PMC11451515.

Catalogue of cell viability values
tested on: P12-Ichikawa; assay: cell viability relative to DMSO control; higher = less cytotoxic; conditions: HPLM + 10% dialyzed FBS; 48 h; 1.71 µM
assay metric: cell viability (%)

molecule: CO/N=C(\C(=O)N[C@@H]1C(=O)N2C(C(=O)OCOC(=O)C(C)(C)C)=C(/C=C\c3scnc3C)CS[C@H]12)c1csc(N)n1
assay metric: cell viability
unit abbrev: %
experimental result: 106
//
molecule: COc1cc(C(=O)NS(=O)(=O)c2ccccc2C)ccc1Cc1cn(C)c2ccc(NC(=O)OC3CCCC3)cc12
assay metric: cell viability
unit abbrev: %
experimental result: 89.1
//
molecule: COC(=O)\C1=C\CCN(C)C1
assay metric: cell viability
unit abbrev: %
experimental result: 102
//
molecule: CNC(=O)[C@H](CC/1=C/N=C\2/C=C\C\C=C12)NC(=O)[C@H](CC(C)C)CC(=O)NO
assay metric: cell viability
unit abbrev: %
experimental result: 105
